For each of the compounds below, state its remaining activity at 2800 µM.
- assay_target: E. coli DdlB enzyme (D-alanine:D-alanine ligase) (Escherichia coli)
- Construct: made in house; host or cells: E. coli
- assay_details: biochemical
- condition: tested concentration 2.8 mM; read-out: DdlB RA
# output: bare number, implied unit %

Return reported remaining activity at 2800 µM; argument: Cc1nc(N(C)C)ncc1C(=O)O
88

Which remaining activity at 2800 µM value belongs to Cc1cc(C(=O)O)nn1C(F)F ?
85

Consider the compound Oc1nc(-c2ccc(F)cc2)no1 and give its measured remaining activity at 2800 µM.
97

Entry under review: Cc1noc(-c2cccnc2Cl)n1 . Reported remaining activity at 2800 µM?
96

Item C#CC(=O)NCc1ccc(F)cc1F has what recorded remaining activity at 2800 µM?
93

Fill blank: measured remaining activity at 2800 µM of the compound N#Cc1ccccc1OCC(=O)O is ____.
96

Would you kindly share the measured remaining activity at 2800 µM for Cc1ccc(-c2noc(O)n2)cc1 ?
95

Name the reported remaining activity at 2800 µM value associated with the compound C=CCN1C(=O)NOC(N)=C1C#N
92

Quick one: remaining activity at 2800 µM of CC(C)NS(=O)(=O)c1ccc(F)cc1 ?
94

Consider the compound O=C1NC(C(=O)O)Cn2cccc21 (stereo not shown) and give its measured remaining activity at 2800 µM.
90

Item under review: CC(C)(C)NS(=O)(=O)c1ccccc1 . Reported remaining activity at 2800 µM?
95

What measured remaining activity at 2800 µM goes with COCC(C)NC(=O)c1cc(C)no1 (stereo not shown) ?
96

Given Cc1ccccc1CS(=O)(=O)N(C)C , state its recorded remaining activity at 2800 µM.
87

* * *

- assay_target: E. coli DdlB enzyme (D-alanine:D-alanine ligase) (Escherichia coli)
- Construct: made in house; host or cells: E. coli
- assay_details: biochemical
- condition: residual activity; tested concentration 1.8 mM; read-out: DdlB RA
Exercise: state measured remaining activity at 1800 µM for each of the compounds provided.
Hi! Could you send only the number? It should be in %, unit omitted.

Return reported remaining activity at 1800 µM; argument: COc1cccc(C(=O)Nc2ccccc2C(=O)O)c1
97

Look up remaining activity at 1800 µM for this compound: O=C(Nc1ccccc1C(=O)O)c1ccccc1Cl
111

If you can, please state the reported remaining activity at 1800 µM value of O=C(O)c1nccnc1C(=O)Nc1cccc(Cl)c1 .
52

Quick one: remaining activity at 1800 µM of COc1ccc(-c2ncc(C(=O)O)c(=O)[nH]2)cc1OC ?
91

I'd like to know its remaining activity at 1800 µM. The compound in question is O=C(O)Cc1nc(-c2cncc(Br)c2)n[nH]1
94

Sample CCCNC(=O)N1CCC(F)(C(=O)NC2CC2)CC1 — what was its remaining activity at 1800 µM?
97

Report remaining activity at 1800 µM for CCS(=O)(=O)N1CC2(CC(N3CCCC3)CO2)C1 (stereo not shown) please.
90

I'd like to know its remaining activity at 1800 µM. The compound in question is O=C(O)c1cc(S(=O)(=O)N2CCCC2)ccc1O
97

Report remaining activity at 1800 µM for CCS(=O)(=O)N1CCCc2cc(NC(C)=O)ccc21 please.
95

So what does the record say about remaining activity at 1800 µM for COc1ccc(C(O)(C(=O)O)C(F)(F)F)cc1OC (stereo not shown) ?
94

I am curious: what remaining activity at 1800 µM value has been reported for CC(=O)CC1(O)C(=O)Nc2ccc(Br)cc21 (stereo not shown) ?
96

Any idea what its remaining activity at 1800 µM is? The compound is O=[N+]([O-])c1cc(CN2CCCC2)c2cccnc2c1O
57

// returns reported remaining activity at 1800 µM for input O=C(O)c1cccn2c(=O)c3cc(Cl)ccc3nc12
78

Given the entry O=C1COc2ccccc2N1Cc1ccc2c(c1)OCO2 , report its measured remaining activity at 1800 µM.
103

I would be grateful if you could share the reported remaining activity at 1800 µM for O=C(C1CCC1)N1CCC(F)(C(=O)N2CCCC2)CC1 .
97

What does the data say about its remaining activity at 1800 µM? Entry: O=C(c1n[nH]c2ccccc12)N1C[C@H]2CCC[C@@H](O)[C@H]2C1
95

remaining activity at 1800 µM for Cc1cccc(C(=O)O)c1NC(=O)c1ccc(F)cc1 ?
99

Please report the recorded remaining activity at 1800 µM for Cc1ccc2nc(C)c(CN3CCCCC3C)c(O)c2c1 (stereo not shown) .
87

Recorded remaining activity at 1800 µM of O=C(N/N=C/c1ccc2cccc(O)c2n1)c1ccco1 , please.
72

* * *

Could you please report measured remaining activity at 2900 µM for the items listed next?
- assay_target: E. coli DdlB enzyme (D-alanine:D-alanine ligase) (Escherichia coli)
- Construct: made in house; host or cells: E. coli
- assay_details: biochemical
- condition: tested concentration 2.9 mM; read-out: DdlB RA
A number alone suffices; assume %.

// query remaining activity at 2900 µM value for entry Cc1cc2nc(O)c(CCO)c(C)n2n1
95

Reported remaining activity at 2900 µM, compound COc1ccc(B(O)O)cc1F : ____
93

What value of remaining activity at 2900 µM has been recorded for this entry: N#CC1CC(c2cccc(Cl)c2)=NO1 (centres unmarked)
107

Would you kindly share the measured remaining activity at 2900 µM for Nc1ccc(S(=O)(=O)O)cc1 ?
95

Request the reported remaining activity at 2900 µM associated with CC1(C(=O)O)CCCCC(=O)N1 (centres unmarked)
93

* * *

- assay_target: E. coli DdlB enzyme (D-alanine:D-alanine ligase) (Escherichia coli)
- Construct: made in house; host or cells: E. coli
- assay_details: biochemical
- condition: tested concentration 2.1 mM; read-out: DdlB RA
Residues, ends and D or L forms follow the SMILES beside them.
reported_endpoint: remaining activity at 2100 µM (%)
The figure you give is taken to be in %; do not add the unit.

I'm curious: which remaining activity at 2100 µM was measured for CC(=O)NCCc1ccc(S(N)(=O)=O)cc1 tested on E. coli DdlB enzyme (D-alanine:D-alanine ligase) (Escherichia coli)?
94

Please state recorded remaining activity at 2100 µM (tested on E. coli DdlB enzyme (D-alanine:D-alanine ligase) (Escherichia coli)) of Cc1c(C(=O)O)nnn1-c1ccc2c(c1)CCC2
92

GET /values?readout=remaining activity at 2100 µM&system=E. coli DdlB enzyme (D-alanine:D-alanine ligase) (Escherichia coli)&item= CC(C)n1c(S(=O)(=O)O)nc2ccccc21
83

Requested read-out remaining activity at 2100 µM, target or system E. coli DdlB enzyme (D-alanine:D-alanine ligase) (Escherichia coli), entry O=[N+]([O-])c1cc(S(=O)(=O)O)ccc1Cl
100

Lab request: please report remaining activity at 2100 µM under test system E. coli DdlB enzyme (D-alanine:D-alanine ligase) (Escherichia coli) for Cc1cccc(OCC(=O)NC(C)C(=O)O)c1 (stereo not drawn)
98

# query: remaining activity at 2100 µM | item Cc1nc2nc(S(N)(=O)=O)nn2c(C)c1C | system: E. coli DdlB enzyme (D-alanine:D-alanine ligase) (Escherichia coli)
97

Query for E. coli DdlB enzyme (D-alanine:D-alanine ligase) (Escherichia coli): what remaining activity at 2100 µM does the record show for O=C(O)Cn1nnc(-c2ccccc2Cl)n1 ?
93

Record O=S(=O)(O)CCN1CCN(CCO)CC1 : what is its remaining activity at 2100 µM with E. coli DdlB enzyme (D-alanine:D-alanine ligase) (Escherichia coli)?
99

Which remaining activity at 2100 µM is reported with E. coli DdlB enzyme (D-alanine:D-alanine ligase) (Escherichia coli) for this entry: O=C(O)C(Cc1ccccc1)Nc1ncccn1 (stereo not drawn) ?
90

Lab request: please report remaining activity at 2100 µM under test system E. coli DdlB enzyme (D-alanine:D-alanine ligase) (Escherichia coli) for NCC(=O)N[C@@H](Cc1ccc(O)cc1)C(=O)O [Compound Y043-8421] (H-Gly-Tyr-OH)
95

What measured remaining activity at 2100 µM is associated with CNC(=O)c1cc(C)nc2ccc(C(C)C)cc12 on E. coli DdlB enzyme (D-alanine:D-alanine ligase) (Escherichia coli)?
97

Provide the documented remaining activity at 2100 µM with E. coli DdlB enzyme (D-alanine:D-alanine ligase) (Escherichia coli) as the system for Cc1nc2ccccc2c(O)c1S(=O)(=O)O
90

Value wanted: remaining activity at 2100 µM (E. coli DdlB enzyme (D-alanine:D-alanine ligase) (Escherichia coli)) of entry CCC[C@@H]1Cc2nc(O)c(C(=O)O)cc2CO1
75

Lab request: please report remaining activity at 2100 µM under test system E. coli DdlB enzyme (D-alanine:D-alanine ligase) (Escherichia coli) for CCCOc1ccc(C(=O)NCC(=O)O)cc1
86

Lab note: need remaining activity at 2100 µM for CN1CCC(Oc2ncccc2C(=O)O)CC1 on E. coli DdlB enzyme (D-alanine:D-alanine ligase) (Escherichia coli), anyone have it?
92

Give E. coli DdlB enzyme (D-alanine:D-alanine ligase) (Escherichia coli) remaining activity at 2100 µM for CCC(C)(C)Nc1c(-c2ccccc2)c(=O)c1=O
48

For E. coli DdlB enzyme (D-alanine:D-alanine ligase) (Escherichia coli), provide remaining activity at 2100 µM of Cc1c(Cl)ccc(S(N)(=O)=O)c1Cl please.
69

API: value(readout=remaining activity at 2100 µM, system=E. coli DdlB enzyme (D-alanine:D-alanine ligase) (Escherichia coli)) for record Nn1cnn(Cc2ccc([N+](=O)[O-])cc2)c1=O
106

Request - read-out remaining activity at 2100 µM | tested on E. coli DdlB enzyme (D-alanine:D-alanine ligase) (Escherichia coli) | compound O=C(O)c1cc(-c2ccc3ccccc3c2)[nH]n1
50

Form: Entry = O=S(=O)(Cc1ccccc1F)N1CCOCC1 | System = E. coli DdlB enzyme (D-alanine:D-alanine ligase) (Escherichia coli) | remaining activity at 2100 µM = ____
95

Test system E. coli DdlB enzyme (D-alanine:D-alanine ligase) (Escherichia coli); read-out remaining activity at 2100 µM; what value for CCOc1c(Nc2ccc(F)cc2)c(=O)c1=O ?
96

API: value(readout= remaining activity at 2100 µM, system= E. coli DdlB enzyme (D-alanine:D-alanine ligase) (Escherichia coli), query= O=C(NC1CCCC1)[C@H]1CCCC[C@H]1C(=O)O )
91

API: value(readout= remaining activity at 2100 µM, system= E. coli DdlB enzyme (D-alanine:D-alanine ligase) (Escherichia coli), query= CC(=O)N1CCC2(CCc3ccc(O)cc3O2)CC1 )
94

What value of remaining activity at 2100 µM on E. coli DdlB enzyme (D-alanine:D-alanine ligase) (Escherichia coli) does CCn1ncc(Cn2cc(Cl)c(N)n2)c1C have?
96

Give E. coli DdlB enzyme (D-alanine:D-alanine ligase) (Escherichia coli) remaining activity at 2100 µM for Nc1c(Cl)cc(S(N)(=O)=O)cc1Cl
93

Reported remaining activity at 2100 µM for E. coli DdlB enzyme (D-alanine:D-alanine ligase) (Escherichia coli), given O=C1CC2CS(=O)(=O)CC2N1C1CCCCC1 (stereo not drawn) ?
82

Lab note: need remaining activity at 2100 µM with E. coli DdlB enzyme (D-alanine:D-alanine ligase) (Escherichia coli) for entry Cc1cc(F)c(F)c(C(=O)n2ccnc2)c1Cl , please look it up.
102

What is its remaining activity at 2100 µM for E. coli DdlB enzyme (D-alanine:D-alanine ligase) (Escherichia coli)? Entry: Cn1ncc(N2CCC[C@@H](C(=O)O)C2)cc1=O
92

State its remaining activity at 2100 µM on E. coli DdlB enzyme (D-alanine:D-alanine ligase) (Escherichia coli): Cc1ccc(O)c(CCc2ccc(O)cc2)n1
90

Notebook entry, E. coli DdlB enzyme (D-alanine:D-alanine ligase) (Escherichia coli) assay: remaining activity at 2100 µM of O=c1c(-c2ccccc2)c(N2CCOCC2)c1=O = ?
91
